Assay: in vivo
Settings: dog, iv, 0.5 mg/kg
# Lookup of reported Vd keyed by entry

COMPOUND	Vd / L/kg
COc1ccc(-n2nc(C(N)=O)c3c2C(=O)N(c2ccc(N4CCCCC4=O)cc2)CC3)cc1	0.2
COc1ccc(-n2nc(C(N)=O)c3c2C(=O)N(c2ccc(C4(N(C)CCO)CC4)cc2)CC3)cc1.O=C(O)C(F)(F)F	4.1
COc1ccc(-n2nc(C(N)=O)c3c2C(=O)N(c2ccc(C4(CN5CCCC5)CC4)cc2)CC3)cc1.O=C(O)C(F)(F)F	7.1
COc1ccc(-n2nc(C(N)=O)c3c2C(=O)N(c2ccc(C4(CN5CCCC5=O)CC4)cc2)CC3)cc1.O=C(O)C(F)(F)F	0.2
COc1ccc(-n2nc(S(C)(=O)=O)c3c2C(=O)N(c2ccc(C4(Cn5ccnc5C)CC4)cc2)CC3)cc1.O=C(O)C(F)(F)F	4
COc1ccc(-n2nc(S(C)(=O)=O)c3c2C(=O)N(c2ccc(C4(CN5CCOCC5)CC4)cc2)CC3)cc1.O=C(O)C(F)(F)F	1.9
COc1ccc(N2N=C(S(C)(=O)=O)C3CCN(c4ccc(C5(CN6CCCC6)CC5)cc4)C(=O)C32)cc1.O=C(O)C(F)(F)F (stereo not given)	7.7
COc1ccc(-n2nc(C#N)c3c2C(=O)N(c2ccc(C4(CN(C)C)CC4)cc2)CC3)cc1.O=C(O)C(F)(F)F	11.7
CNC1(c2ccc(N3CCc4c(C(N)=O)nn(-c5ccc(OC)cc5)c4C3=O)cc2)CC1.O=C(O)C(F)(F)F	4.4
COc1ccc(-n2nc(C(N)=O)c3c2C(=O)N(c2ccc(C4(CC(N)=O)CC4)cc2)CC3)cc1.O=C(O)C(F)(F)F	0.65

---

Experiment: in vivo
Conditions: dog, po, 0.2 mg/kg
# Lookup of reported half-life keyed by entry
EXPERIMENTAL_READOUT: half-life

COMPOUND	REPORTED_RESULT
COc1ccc(N2N=C(S(C)(=O)=O)C3CCN(c4ccc(C5(CN6CCCC6)CC5)cc4)C(=O)C32)cc1.O=C(O)C(F)(F)F (centres undefined)	2.3 h
COc1ccc(-n2nc(S(C)(=O)=O)c3c2C(=O)N(c2ccc(C4(CN5CCOCC5)CC4)cc2)CC3)cc1.O=C(O)C(F)(F)F	4 h
COc1ccc(-n2nc(C(N)=O)c3c2C(=O)N(c2ccc(C4(N(C)CCO)CC4)cc2)CC3)cc1.O=C(O)C(F)(F)F	4.3 h
COc1ccc(-n2nc(C(N)=O)c3c2C(=O)N(c2ccc(C4(CC(N)=O)CC4)cc2)CC3)cc1.O=C(O)C(F)(F)F	1.9 h

---

Test: in vitro
Conditions: dog, liver microsomes

SAMPLE_SMILES	half-life [h]
COc1ccc(-n2nc(C#N)c3c2C(=O)N(c2ccc(C4(CN(C)C)CC4)cc2)CC3)cc1.O=C(O)C(F)(F)F	1.22
COc1ccc(-n2nc(C(N)=O)c3c2C(=O)N(c2ccc(C4(CN5CCCC5)CC4)cc2)CC3)cc1.O=C(O)C(F)(F)F	1
CNC1(c2ccc(N3CCc4c(C(N)=O)nn(-c5ccc(OC)cc5)c4C3=O)cc2)CC1.O=C(O)C(F)(F)F	0.6
COc1ccc(-n2nc(C(N)=O)c3c2C(=O)N(c2ccc(C4(N(C)CCO)CC4)cc2)CC3)cc1.O=C(O)C(F)(F)F	3
COc1ccc(-n2nc(C(N)=O)c3c2C(=O)N(c2ccc(C4(CN5CCCC5=O)CC4)cc2)CC3)cc1.O=C(O)C(F)(F)F	0.183
COc1ccc(-n2nc(C(N)=O)c3c2C(=O)N(c2ccc(C4(CC(N)=O)CC4)cc2)CC3)cc1.O=C(O)C(F)(F)F	1.65
